B1: KRT13 (parent)
chain: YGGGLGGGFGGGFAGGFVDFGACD

Variants of: B1
Test: protein stability index of a GFP-peptide fusion (GPS, HEK-293T) (PSI 1-6); higher = more stable;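 further: lentivirally expressed fusions sorted by FACS into six bins by GFP to DsRed ratio, PSI derived from sequencing read proportions per bin multiplied by bin number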
Conditions: c terminus: a fixed tail appended

Variant identifier	protein stability index
A14E	1.81
G15I	3.13
D19A	3.27
G4K	2.84
A22F	2.1
F9I	1.49
Y1A	2.87
D19C	1.86
A22Q	2.34
D19K	2
F13R	1.77
F13T	2.07
G21F	2.87
G6D	1.89
G15W	1.58
G21K	1.93
G2E	2.66
F13Y	2.39
G12S	1.77
L5R	2.62
G8H	3
G11H	1.75
D19S	2.12
G12C	2.75
A22C	1.9
F17V	2.37
G7P	1.84
G2R	2.33
G12N	1.04
G6Y	1
G2N	2.23
G7I	1.9
G8E	1.72
G3C	1.87
F17L	1.09
F20E	2.18
A22W	1.75
F13G	2.08
G4W	2.33
G16K	1.53
G12D	2.22
G10D	2.03
D24Q	1.91
A14F	2.8
F20R	1.78
G3I	2.29
G21N	1.68
V18H	2.44
D19V	2.61
G21I	1.99
G11Y	4.04
G6L	2.86
G16V	1.87
Y1F	1.16
F20H	2.69
G8T	1.77
G4L	2.14
C23S	1.92
A14I	2.46
